- MEASURED_TARGET: Estrogen receptor (Homo sapiens) (UniProt P03372)
- Sequence (P03372 whole entry, looked up): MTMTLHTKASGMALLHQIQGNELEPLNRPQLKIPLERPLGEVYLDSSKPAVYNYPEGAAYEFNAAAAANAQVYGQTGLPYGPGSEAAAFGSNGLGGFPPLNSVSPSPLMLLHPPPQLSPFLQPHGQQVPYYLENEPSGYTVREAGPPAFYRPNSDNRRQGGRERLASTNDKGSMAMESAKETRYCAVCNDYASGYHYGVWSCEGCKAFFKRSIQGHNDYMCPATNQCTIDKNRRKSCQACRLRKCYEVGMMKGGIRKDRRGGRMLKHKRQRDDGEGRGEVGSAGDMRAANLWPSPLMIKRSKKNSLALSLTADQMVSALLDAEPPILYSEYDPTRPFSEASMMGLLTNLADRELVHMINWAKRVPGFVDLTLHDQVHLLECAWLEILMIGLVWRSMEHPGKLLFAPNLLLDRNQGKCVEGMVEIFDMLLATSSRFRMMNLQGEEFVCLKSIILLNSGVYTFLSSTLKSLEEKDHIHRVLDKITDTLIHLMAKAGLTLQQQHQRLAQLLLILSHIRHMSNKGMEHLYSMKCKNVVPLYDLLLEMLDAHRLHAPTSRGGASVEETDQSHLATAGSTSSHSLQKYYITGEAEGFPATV
- METHOD: qHTS assay to identify small molecule antagonists of the estrogen receptor alpha (ER-alpha) signaling pathway using the BG1 cell line in the presence of 0.1 nM 17-beta-estradiol (AID 1259244); note: nearly all actives have a fitted effect of over 50% in size; note: potency is the fitted concentration of half-maximal effect
- CONDITION_INFO: VM7Luc4E2 (BG1) ERE-luciferase, antagonist mode, 0.1 nM E2, 22 h; series mostly up to 92.4 µM
Results filed as inconclusive are left out. Activity calls are given as the source filed them. Calls come from the whole dose curve; as a rule, active = well fitted inhibition curve with a large enough effect in the repeat runs; inconclusive = weak or mixed curves; inactive = no such curve, though single readings can be large or run the other way.

- COMPOUND: "Cc1c(F)c(N2CCNC(C)C2)cc2c1c(=O)c(C(=O)O)cn2C1CC1 (centres undefined)"
  Potency: "inactive"
- COMPOUND: "COc1cc(/C=C/c2ccccc2)oc(=O)c1"
  Potency: "inactive"
- COMPOUND: "C[Si](Cl)(c1ccccc1)c1ccccc1"
  Potency: "inactive"
- COMPOUND: "CCc1ccc(Br)cc1"
  Potency: "inactive"
- COMPOUND: "CCCCN(CCCC)CC(O)c1cc(Cl)cc2c1-c1ccc(Cl)cc1/C2=C/c1ccc(Cl)cc1 (centres undefined)"
  Potency: "inactive"
- COMPOUND: "CC(C)(C)NSc1nc2ccccc2s1"
  Potency: "inactive"
- COMPOUND: "CC(C)CCCCCOC(=O)CCS"
  Potency: "inactive"
- COMPOUND: "CCN1C(=O)c2ccccc2C1Nc1ccc(OCCN2CCCCC2)cc1 (centres undefined)"
  Potency: "inactive"
- COMPOUND: "Cc1c(C)c2c(c(C)c1OC(=O)c1cccnc1)CC[C@@](C)(CCC[C@H](C)CCC[C@H](C)CCCC(C)C)O2"
  Potency: "inactive"
- COMPOUND: "O=C(O)c1cc(N=Nc2ccc([N+](=O)[O-])cc2)ccc1O"
  Potency: "inactive"
- COMPOUND: "CCCCC/C=C\\C/C=C\\CCCCCCCC(=O)O"
  Potency: "inactive"
- COMPOUND: "CCCCCCCC"
  Potency: "inactive"
- COMPOUND: "[Cu+]"
  Potency: "inactive"
- COMPOUND: "CC1=CCC(=C(C)C)CC1"
  Potency: "inactive"
- COMPOUND: "CC(C)OC(=O)C(O)(CC(=O)O)CC(=O)O"
  Potency: "inactive"
- COMPOUND: "CC(C)NC[C@@H](O)COc1ccc(CC(N)=O)cc1"
  Potency: "inactive"
- COMPOUND: "O=C1CCc2cc(OCCCCc3nnnn3C3CCCCC3)ccc2N1"
  Potency: "21.1 µM (active)"
- COMPOUND: "CC(=O)OCC=C(C)C"
  Potency: "inactive"
- COMPOUND: "C=Cc1ccccc1C=C"
  Potency: "inactive"
- COMPOUND: "c1ccc(SSc2ccccc2)cc1"
  Potency: "inactive"
- COMPOUND: "CC(C)(C)C1CCC(=O)CC1"
  Potency: "inactive"
- COMPOUND: "CC1=Nc2ccccc2C1(C)C"
  Potency: "inactive"
- COMPOUND: "COC(C)=O"
  Potency: "inactive"
- COMPOUND: "CC(CCc1ccccc1)NCC(O)c1ccc(O)c(C(N)=O)c1 (centres undefined)"
  Potency: "inactive"
- COMPOUND: "C#Cc1ccc(-c2ccccc2F)cc1"
  Potency: "inactive"
- COMPOUND: "CN1CCCCC1CCN1c2ccccc2Sc2ccc(S(C)=O)cc21 (centres undefined)"
  Potency: "inactive"
- COMPOUND: "CNc1ccc([N+](=O)[O-])cc1"
  Potency: "inactive"
- COMPOUND: "CCCC1CCC(=O)CC1"
  Potency: "inactive"
- COMPOUND: "Nc1nc2c(ncn2COCCO)c(=O)[nH]1"
  Potency: "inactive"
